Test system: NCI-H322M lung
measurement notes: NCI-60 one-dose screen, 48 h (100 = growth as untreated, 0 = no growth, -100 = all killed)
details: 10 µM unless noted
This is part of a sample that, as a whole, favours compounds with a hit. Of some 83,000 tested, about 20% had one in any assay.
// label = Fulfilled if growth is not less than 50%, otherwise Not fulfilled

- Nc1nc(N)c2cc(Sc3ccc(Cl)cc3)ccc2n1: Not fulfilled
- N#CC1=C(N)Oc2nc[nH]c(=O)c2C1c1cccs1 (configuration not stated): Fulfilled
- Cc1nc2ccc(Nc3nc(N4CCOCC4)nc(N4CCN(C)CC4)n3)cc2n1Cc1ccccc1: Fulfilled
- CC(C)c1ccc(Cn2ccc3c4c(N)nc(NC5CC5)nc4ccc32)cc1: Not fulfilled
- CCOc1cccc(/C=N/NC(=O)Cc2ccc(Nc3ccnc(C(F)(F)F)c3)cc2)c1O: Not fulfilled
- CC(=O)N1N=C(c2ccc(C)cc2)CC1c1cn(-c2ccccc2)nc1-c1cccc(Nc2ccnc3cc(Cl)ccc23)c1 (configuration not stated): Fulfilled
- Cc1ccc(NC(=O)c2[nH]c(SCCN(C)C)nc2-c2ccc(F)cc2)cc1Nc1ccc2ncn(C)c(=O)c2c1: Fulfilled
- CCN(CC)CCCC(C)Nc1cnc(C(=O)Nc2ccc(Cl)c3cccnc23)cn1 (configuration not stated): Not fulfilled
- CCN(CC)CCCC(C)Nc1cnc(C(=O)Nc2cccc3ccc(OC)nc23)cn1 (configuration not stated): Fulfilled
- COc1ccc(C(=O)/C=C/c2cn(-c3ccccc3)nc2-c2cccc(Nc3ccnc4cc(Cl)ccc34)c2)cc1: Fulfilled
- COc1cc2c(cc1I)-c1c(cc(OC)c(OC)c1OC)CC[C@@H]2NC(C)=O: Fulfilled
- O=C(CN1CCN(c2ccccc2)CC1)N1CCN(c2nnc(-c3ccc(Cl)cc3)c(-c3ccc(Cl)cc3)n2)CC1: Fulfilled
- COc1cc(/C=C2\C(=O)Nc3ccc(N(C)C)cc32)cc(OC)c1OC: Not fulfilled
- COc1ccc(/C=c2\c(=O)n(-c3ccccc3)c3nn4c(n23)=NNC42CCCCC2)cc1: Fulfilled
- CCN(CC)CCNc1c(C)cc(CO)c(Cl)c1C: Fulfilled
- CSC(=S)N/N=C(\C)c1ccccn1: Not fulfilled
- CCN(CC)Cc1cc(Nc2nc(NC3CCC(N(C)C)CC3)c3ccccc3n2)ccc1OC (configuration not stated): Fulfilled
- COCCn1c(Nc2ccc(C(=O)NO)cc2)nc2ccccc21: Fulfilled
- CN1CCN(Cc2ccc(NC(=O)c3cncc(C#Cc4ccc(N)nc4)c3)cc2C(F)(F)F)CC1: Not fulfilled
- O=C1C=CC(=O)N1CO: Fulfilled
- N=C(N)c1ccc(-c2ccc(-c3cc(Cl)cc(Cl)c3)o2)nc1: Not fulfilled
- CN(C)c1ccc(/C=C(\C#N)c2nc3ccccc3n2C)cc1: Not fulfilled
- CCCCCCCCCCCCCCCCS(=O)(=O)Nc1cc(C(=O)NN)cc(C(=O)NN)c1: Fulfilled
- COc1cc2cc(C(=O)Nc3ccccc3)c(N)nc2cc1OC: Not fulfilled
- COc1ccc(/C=C2\Cc3c(Br)cccc3C2=O)c(OC)c1: Fulfilled
- CN(C)c1ccc(N2Cc3ccccc3OC3=C2C(=O)c2c(O)ccc(O)c2C3=O)cn1: Not fulfilled
- CC(C)NCCCCCNc1cc(O)cc2cccnc12: Fulfilled
- COc1cc(C2CC(c3ccc(Nc4ccnc5cc(Cl)ccc45)cc3)=NN2c2ccccc2)cc(OC)c1OC (configuration not stated): Fulfilled
- COCCOCCOCc1n(Cc2ccc3ccccc3n2)c2ccccc2[n+]1Cc1ccc2ccccc2c1: Not fulfilled
- O=C(c1ccc(C(F)(F)F)c(Cl)c1)N(Cc1ccc(Cl)cc1)c1ccc(-c2cc(C(F)(F)F)[nH]n2)c(O)c1: Not fulfilled
- C=C(C)c1ccc(/C=N/NC(N)=S)cc1: Fulfilled
- NNC(=O)Cc1ccccc1: Fulfilled
- Fc1cnccc1-c1nc2ccc3[nH]ncc3c2c2c1CCCC2: Not fulfilled
- O=C(Nc1cnc(C(F)(F)F)cn1)c1cc(Cl)ccc1O: Not fulfilled
- O=c1[nH]c2cc(Cl)c(Cl)cc2o1: Fulfilled
- O=C1CC2(O)CSc3nc(=O)cc(n32)N1 (configuration not stated): Fulfilled
- COc1ccc2[nH]cc(/C=C3\C(=O)Nc4ccccc43)c2c1: Not fulfilled
- c1ccc2c(c1)cnc1ccccc12: Fulfilled
- COc1cc(OC)cc(-c2n/c(=C\c3c(O)[nH]c4ccc(Cl)cc34)cc3c2=Nc2ccccc2-3)c1: Fulfilled
- O=C(Nc1ccc2ncnc(Nc3ccc(F)c(Cl)c3)c2c1)c1cccs1: Not fulfilled
